In this section, each of the binders is paired with its reported Kd.
- target desc: T1, prefusion-stabilized RSV F ectodomain (DS-Cav1), subtype B (respiratory syncytial virus subtype B)
- T1 construct: extracellular domain; also called Prefusion subtype B
- protocol notes: BLI, IgG on sensor
Use nM as the unit, but write only the number.

Recorded Kd, per entry:
>  <binder>
ADI-15650 (antibody, V domains shown, IgG; also called Antibody Number 214) VH: EVQLVESGGGLIQPGGSLRLSCAASGFTVSSKYMSWVRQAPGKGLEWVSIIYSGGSTYYADSVKGRFTISRDNSKNTLYLQMNSLRAEDTAVYYCARDDYDFWSGNGPPEMAVWGQGTTVTVSS VL: DMRLTQSPSSLSASVGDRVTITCRASQGISNYLAWYQQRPGKVPQLLIYTASTLQSGVPSRFSGSGSETDFTLTISSLQPEDVATYYCQKYDSVPLTFGQGTKVEIK

>  <readout unit>
nM

>  <Kd>
3.52

$$$$
>  <binder>
ADI-15604 (antibody, V domains shown, IgG; also called Antibody Number 170) VH: EVQLLESGGGLVKPGGSLRLSCGASGFKFSDYYMSWIRQAPGKGLEWVSHISSSNSYINYADSVKGRFTISRDNARNSLSLQMNSLRAEDTAVYYCARFPLYCSRSSCSHYVDYWGQGTLVTVSS VL: QSVLTQPPSVSGAPGQRVTISCTGSGSNIGAGYDVHWYQQLPGTAPKLLIYDNNNRPSGVPDRFSGSKSGTSASLAITGLQVEDEADYYCQSYDRSLSVVFGGGTKVTVL

>  <readout unit>
nM

>  <Kd>
0.46

$$$$

So what's the measured Kd for this one? ADI-15591 (antibody, V domains shown, IgG) VH: EVQLLESGGGLVKPGGSLRLSCAASGFTFSSYGMHWVRQAPGKGLEWVSSITAGSSYMDYADSVKGRFTVSRDNGKNSLYLQMNSLRAEDTAVYFCAREDYDSRVYYLKWFDPWGQGTLVTVSS VL: QSVLTQPPSVSGAPGQRVTISCTGSSSNIGTGYDVHWYQQLPGSAPKLLIYGNSNRPSGVPDRFSGSKSGTSASLAITGLQAEDEADYYCQSYDSSRSGYVFGTGTKLTVL
0.304

So what's the measured Kd for this one? ADI-15612 (antibody, V domains shown, IgG) VH: EVQLLESGGDLVQPGGSLRLSCAASGFPFSSHSMNWVRQAPGKGLEWISYISGGSDTIQYADSVKGRFTISRDNVKNSLYLQMNSLRAEDTAVYYCARDQYIWNYVEPLDYWGQGTLVTVSS VL: DIQMTQSPSSLSASVGDRVTITCRASQDISYYLGWYQQKAGKAPKLLIYAVSNLQTGVPSRFSGSGSGTDFTLTISSLQPEDFATYYCLQDHTCPWTFGQGTKVEIK
0.157

So what's the measured Kd for this one? ADI-15586 (antibody, V domains shown, IgG; also called Antibody Number 153) VH: EVQLVESGGGVVQPGKSLRLSCAASGFIFSGYGMHWVRQAPGKGLEWVAFIWFDGSSTYYADSVKGRFTISKDDSKQTVYLQMNRLRAEDTAVYYCARDPLFLYNYNDEPFDYWGQGTLVTVSS VL: SYELTQPPSASGSPGQSVTISCSGSSSNIGGNFVYWYQQLPGTAPKVLIYRNNQRPSGVPDRFSGSKSGTSASLAISGLRSDDEADYYCSVWDDSLNGRLFGGGTKLTVL
5.78
